Each recorded value in this set is attributed to paper PMC9352680.

- System Name: T1, PUF4 RNA-binding domain (Saccharomyces cerevisiae, UniProt P25339 537-888)
- T1 sequence: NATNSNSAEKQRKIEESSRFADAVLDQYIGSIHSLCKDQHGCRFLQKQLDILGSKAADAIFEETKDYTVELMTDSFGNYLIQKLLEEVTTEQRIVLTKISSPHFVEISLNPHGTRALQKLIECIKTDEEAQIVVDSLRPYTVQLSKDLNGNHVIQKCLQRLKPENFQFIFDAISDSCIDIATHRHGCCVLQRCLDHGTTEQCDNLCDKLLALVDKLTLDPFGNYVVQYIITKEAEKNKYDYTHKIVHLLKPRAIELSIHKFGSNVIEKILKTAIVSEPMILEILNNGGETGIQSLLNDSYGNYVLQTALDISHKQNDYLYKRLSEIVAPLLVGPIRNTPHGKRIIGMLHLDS
- Procedure Summary: Mg; RNA-MaP; 20 mM Na-HEPES pH 7.4, 30 mM KOAc, 0.75 mM MgCl2, 0.1% Tween-20, 5% glycerol, 0.1 mg/mL BSA, 2 mM DTT; 25 C; 0.0125-409.6 nM protein
- Measurement Conditions: tags: N-His6-TEV cleaved; C-SNAP kept, Cy3B-labelled; label: tethered on chip by stalled RNA polymerase
pKd: −log10 of the molar value.
Rule: pKd of 8 or more gives class 1; anything lower gives class 0.

For orientation, consider the following solved cases.
1. ACAAACCGACACUAUUAAAACAAAC (ssRNA) [Id_ii_S3_P4E.4_K4.3_C4.2_[T-1G]_H4.3_A4.1_F4.1_T4.2_[G10A]_[T11A]] :: class 0
2. Ib_S2_P3E.1_K3.1_C3.1_H3.1_[A4G]_A3.1_F3.1_[T7A]_T3.1 (ssRNA) RNA: UUUGAUUAAUAUGAUAUCGUUCUUUCUUGUGUAAAUUCUUUCUCGAUAUCAUAUUAAUCUUU :: class 0
3. UCUCUUACUAUAUUAUUAAUUCUCUU (ssRNA) [Id_ii_S1_P5E.3_K5.2_C5.2_[C-2A]_[T-1C]_H5.2_A5.1_F5.1_T5.2_[T11A]_[A12T]] :: class 0
4. Ib_S4_P4E.1_K4.1_C4.1_H4.1_A4.1_[T5A]_[T7C]_F4.1_T4.1 (ssRNA) RNA: UUUGACAACUGAUCGUUCUUUCUUGUAAACUAUUCUUUCUCGAUCAGUUGUCUUU :: class 1

API: above_or_equal(metric=pKd, cutoff=8) for item ACAAACCGACACUUAUUACGACAAAC (ssRNA) [Id_ii_S3_P5E.4_K5.3_C5.2_[T-1G]_H5.3_A5.1_F5.1_T5.2_[T11C]_[A12G]]
class 0

Does the binder Id_ii_S2_P4E.3_K4.2_C4.2_[C-2T]_[T-1G]_H4.2_A4.1_F4.1_T4.2_[G10T]_[T11G] (ssRNA) RNA: UUUGAUUAAUAUGAUAUCGUUCUUUCUUGUAUAUAUUAUGUUCUUUCUCGAUAUCAUAUUAAUCUUU have recorded pKd that is 8 or more?
class 1
